assay: yeast display, Sf9 membrane polyspecificity reagent, FACS + sequencing; frameworks hold sequencing errors
reported_property: polyreactivity (PSR sort gate)

Known results for sequences:
[[record]]
sequence_input = "QVQLVESGGGLVQAGGSLRLSCAASGSTFERYVMGWYRQAPGTERELVAAISRSGGTTYYADSVKGRFTISRDNAKNTVYLHMNSLKPEDTAVYYCAARYSVRGSQRPIYYYWGQGTQVTVSS"
measured_value = "high polyreactivity"

[[record]]
sequence_input = "QVQLVESGGGLVQAGGSLRLSCAASGFIFGYYAMGLYRQAPVKERELVAAITSGTGTNYADSVKGRFTISRDNAKNTVYLQMNSLKPEDTAVYYCAAYYTWLSEFGYWGQGTQVTVSS"
measured_value = "low polyreactivity"

[[record]]
sequence_input = "QVQLQESGGGLVQAGGSLCMSCAASGSISDYIFMCWYRQAPGKVREFVAGIGIGGKTNYADSVKGRFTIRRDNEKYTVYLQMNSLKPEDTALYYCAANATYTDYYAYCGQGTQVTVSS"
measured_value = "low polyreactivity"

[[record]]
sequence_input = "QVQLVESGGGLVQAGGSLRLSCAASGSTFFYNAMGWYRQAPGKERELVAAITYRGGRTYYADSVKGRFTISRDIAKNTVYLQMKSLNPEDTSVYYCHAYPLYRVPDRLVVSDGNYWGQGTQVTVSS"
measured_value = "low polyreactivity"


Turning now to a further sequence:
Ask | Please give measured polyreactivity (PSR sort gate) of the following entry: QVQLEESGGGLVQAGGSLRLSCAASGSIFYTYAMGWYRQAPGTERELVAAISRSGGSTYYADSVKGRFTISRDNAKNTVYLQMNSLKPEDTSVYYCAARPPYRVGIVPLGRREYYWGQGTQVTVSS
Reply | high polyreactivity
